- TEST_SYSTEM: Bromodomain-containing protein 9 (Homo sapiens) (UniProt Q9H8M2)
- Sequence (Q9H8M2 whole entry): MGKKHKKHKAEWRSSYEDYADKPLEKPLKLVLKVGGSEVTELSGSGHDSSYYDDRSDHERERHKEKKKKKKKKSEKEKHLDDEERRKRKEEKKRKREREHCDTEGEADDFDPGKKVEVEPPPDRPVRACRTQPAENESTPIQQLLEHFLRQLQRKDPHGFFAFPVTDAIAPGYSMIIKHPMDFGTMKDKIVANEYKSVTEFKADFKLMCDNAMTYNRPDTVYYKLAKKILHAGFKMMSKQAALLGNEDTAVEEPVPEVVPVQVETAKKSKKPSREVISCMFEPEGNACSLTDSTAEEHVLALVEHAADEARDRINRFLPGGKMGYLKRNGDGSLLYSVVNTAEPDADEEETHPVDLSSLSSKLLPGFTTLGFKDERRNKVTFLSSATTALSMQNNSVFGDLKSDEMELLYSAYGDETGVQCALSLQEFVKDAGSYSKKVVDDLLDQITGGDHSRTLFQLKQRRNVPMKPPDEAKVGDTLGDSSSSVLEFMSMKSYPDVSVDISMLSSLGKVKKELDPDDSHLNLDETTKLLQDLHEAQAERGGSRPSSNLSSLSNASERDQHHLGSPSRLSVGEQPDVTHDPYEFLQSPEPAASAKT
- ASSAY_DETAILS: Binding affinity to human recombinant biotinylated BRD9 assessed as change in melting temperature at 4 uM by thermal shift assay
Values of ΔTm greater than or equal to 3 °C map to yes; values below map to no.

For orientation, consider the following solved cases.
CCOC(=O)Nc1cc(-c2ccc(C)c(NS(C)(=O)=O)c2)nn2c(C)nnc12 : yes
CCOC(=O)N(c1cc(-c2cc(N)c3nnc(C)n3n2)ccc1C)S(=O)(=O)c1ccc(Cl)cc1 : no
COc1ccc(-c2ccc3nnc(C(F)(F)F)n3n2)cc1 : no

Prompt: Hi, just wondering whether Cc1ccc(-c2cc(N)c3nnc(C)n3n2)cc1NS(=O)(=O)c1ccc(Cl)c(Cl)c1 shows ΔTm of 3 °C or higher.
Completion: yes

Prompt: Input FC(F)(F)c1nnc2ccc(-c3ccccc3)nn12
Completion: no

Prompt: Input Cc1ccc(-c2cc(N)c3nnc(C)n3n2)cc1NS(=O)(=O)c1ccccc1Cl
Completion: no
